# measurement-target: hBChE (Homo sapiens, UniProt P06276)
# Sequence (P06276 29-602): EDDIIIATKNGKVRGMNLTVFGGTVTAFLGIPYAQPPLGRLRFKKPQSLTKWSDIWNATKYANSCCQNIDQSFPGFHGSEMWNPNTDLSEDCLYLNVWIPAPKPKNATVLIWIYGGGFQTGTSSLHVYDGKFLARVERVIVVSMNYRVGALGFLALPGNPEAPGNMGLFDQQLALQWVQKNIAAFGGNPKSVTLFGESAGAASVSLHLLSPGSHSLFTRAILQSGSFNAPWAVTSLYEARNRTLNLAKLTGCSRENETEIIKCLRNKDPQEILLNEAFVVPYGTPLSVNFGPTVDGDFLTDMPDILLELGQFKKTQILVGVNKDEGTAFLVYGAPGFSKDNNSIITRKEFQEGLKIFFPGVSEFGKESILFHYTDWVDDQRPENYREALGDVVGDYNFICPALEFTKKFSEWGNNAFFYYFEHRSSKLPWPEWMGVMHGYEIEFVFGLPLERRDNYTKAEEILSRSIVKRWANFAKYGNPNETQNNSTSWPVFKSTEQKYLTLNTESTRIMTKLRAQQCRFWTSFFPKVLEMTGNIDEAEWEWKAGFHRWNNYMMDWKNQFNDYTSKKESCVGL
measured-attribute: Kd (nM)

CCN(CC)c1ccc2cc(-c3nc(CN4CCCC(CN(CCN(C)C)C(=O)c5ccc6ccccc6c5)C4)cs3)c(=O)oc2c1 (stereo not shown) [2C] ... 5.5

---

// remaining activity at 100 µM lookup, one value per entry
# measurement-target: UniProtKB P22303
# Sequence (P22303 32-614): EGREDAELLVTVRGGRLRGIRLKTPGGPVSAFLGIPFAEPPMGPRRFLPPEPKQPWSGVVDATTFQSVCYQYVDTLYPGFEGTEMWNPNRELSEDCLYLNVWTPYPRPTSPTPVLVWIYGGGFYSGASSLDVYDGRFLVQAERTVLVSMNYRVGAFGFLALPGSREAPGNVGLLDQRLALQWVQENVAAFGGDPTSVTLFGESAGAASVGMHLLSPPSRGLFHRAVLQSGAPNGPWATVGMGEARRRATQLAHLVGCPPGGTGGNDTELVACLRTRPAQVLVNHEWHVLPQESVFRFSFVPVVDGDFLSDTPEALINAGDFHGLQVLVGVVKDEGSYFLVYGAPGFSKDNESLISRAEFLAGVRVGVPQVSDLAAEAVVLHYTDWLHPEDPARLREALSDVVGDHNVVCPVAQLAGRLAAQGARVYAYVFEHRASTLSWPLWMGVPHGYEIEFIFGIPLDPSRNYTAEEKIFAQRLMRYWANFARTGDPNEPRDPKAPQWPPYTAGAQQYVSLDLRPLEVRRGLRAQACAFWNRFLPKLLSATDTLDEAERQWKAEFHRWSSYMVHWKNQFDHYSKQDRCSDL
# test-details: Inhibition of huAChE, method of Ellman
# Format: biochemical
# condition-context: compound at 100 µM; read-out: huAChE residual activity (RA)
measured-attribute: remaining activity at 100 µM (%)

CCN(CC)c1ccc2cc(C(=O)NCCOCCOCCN(CC3CCCN(Cc4ccccc4)C3)S(=O)(=O)c3ccc4ccccc4c3)c(=O)oc2c1 (centres unmarked) ... 94
CN(C)c1ccc2cc(C(=O)NCC[N+](C)(C)C)c(=O)oc2c1 ... 25
CN(C)CCNC(=O)c1cc2ccc(N(C)C)cc2oc1=O ... 18
O=[N+]([O-])c1ccc(N2CCN(CCN(CC3CCCN(Cc4ccccc4)C3)S(=O)(=O)c3ccc4ccccc4c3)CC2)c2nonc12 (centres unmarked) ... 57
CCN(CC)c1ccc2cc(C(=O)N(CCOC)CC3CCCN(Cc4ccccc4)C3)c(=O)oc2c1 (centres unmarked) ... 89
[N-]=[N+]=NCCOCCN(CC1CCCN(Cc2ccccc2)C1)S(=O)(=O)c1ccc2ccccc2c1 (centres unmarked) ... 84
O=[N+]([O-])c1ccc(N2CCN(Cc3cn(CCOCCN(CC4CCCN(Cc5ccccc5)C4)S(=O)(=O)c4ccc5ccccc5c4)nn3)CC2)c2nonc12 (centres unmarked) ... 98

# credit: paper PMC6968640
